- Tested on: A549 NSCLC
- Method: NCI tumour cell line growth inhibition, 48 h
List of TGI values.

Observe how each entry below is paired with its result.
>>> result("O=C(Nc1nc2ncn(CC(COc3ccccc3)OC(=O)c3ccccc3)c2c(=O)[nH]1)c1ccccc1 (stereo unspecified)")
"> 100 µM"
>>> result("CC(=O)OCC1OC(n2c(N)c(C#N)c(-c3ccc(C)cc3)c(C#N)c2=S)C(OC(C)=O)C(OC(C)=O)C1OC(C)=O (stereo unspecified)")
"29.5 µM"

// below: TGI requested for another compound
Exercise: Any idea what TGI was measured for N#CC(c1cc2c(cc1Br)OCO2)N1CCOCC1 (stereo unspecified) ?
Solution: > 100 µM
